assay: Measurement of photostability (irradiation of highly diluted solution of the UV-filter, analysis by UV-spectroscopy); type: physicochemical

# smiles notation, photostability (in words)
measured = [
    ("COc1cc2cc(C(=O)O)cc(O)c(=O)c2c(O)c1O", "high photostability"),
    ("CCCCCCCC/C=C\\CCCCCCCCOc1cc2cc(C(=O)OC)cc(O)c(=O)c2c(O)c1O", "high photostability"),
]

* * *

assay: UV shielding properties (UV spectra in ethanol); format: physicochemical; conditions: UV spectra in ethanol
observation type: Absorption maximum 1 A^1%1 cm

# compound, Absorption maximum 1 A^1%1 cm
data = [
    ("CCCCc1ccc2c(CCCC)c(O)c(O)c(O)c2c(=O)c1O [Compound B-55]", 788),
    ("Cc1cc2cc(C(=O)NCCCCP(=O)(O)O)cc(O)c(=O)c2c(O)c1O [Compound B-49]", 601),
]

a = COC(=O)c1cc(O)c(=O)c2c(O)c(O)c(C)cc2c1 [Compound B-6]
b = COC(=O)c1cc(O)c(=O)c2c(O)c(O)c(O[C@@H]3O[C@H](COC(C)=O)[C@H](OC(C)=O)[C@H](OC(C)=O)[C@H]3OC(C)=O)cc2c1 [Compound B-37]
Q: Returns: the label, a or b , whose recorded Absorption maximum 1 A^1%1 cm is the lower number. Use the label to indicate which entry you chose.
Ans: b
(b: 394, a: 997)

* * *

assay: UV shielding properties (UV spectra in ethanol); format: physicochemical; settings: UV spectra in ethanol
observation type: Absorption maximum 1 A^1%1 cm

Please review the entries below; each comes with its answer.
# compound, Absorption maximum 1 A^1%1 cm
data = [
    ("COC(=O)c1cc(O)c(=O)c2c(O)c(O)ccc2c1 [Compound B-3]", 1007),
    ("Cc1cc2cc(C(=O)O)cc(O)c(=O)c2c(O)c1O [Compound B-31]", 1065),
    ("CCOC(=O)CCCCCOc1cc2cc(C(=O)O)cc(O)c(=O)c2c(O)c1O [Compound B-36]", 750),
    ("COC(=O)c1cc(O)c(=O)c2c(O)c(O)c(O[C@@H]3O[C@H](CO)[C@H](O)[C@H](O)[C@H]3O)cc2c1 [Compound B-16]", 550),
    ("O=c1c(O)cccc2cc(O)c(O)c(O)c12 [Compound B-1]", 935),
]

1 = COc1cc2cc(CO)cc(O)c(=O)c2c(O)c1O [Compound B-50]
2 = CCCCCCCCCCCCOC(=O)c1cc(O)c(=O)c2c(O)c(O)c(OCCCCCCCCCCCC)cc2c1 [Compound B-53]
Q: Higher Absorption maximum 1 A^1%1 cm between 1 and 2 ? Use the label to indicate which entry you chose.
Ans: 1

* * *

Assay: UV shielding properties (UV spectra in ethanol)
Assay type: physicochemical
Design: unit not given here
Conditions: UV spectra in ethanol
Description: The UV shielding properties of the benzotropolone derivatives were investigated by measuring their UV spectra in ethanol. In the following table the investigated absorption maxima (λmax) together with the corresponding A^1%1cm values are listed.
observation type: Absorption maximum 1 λmax

# compound, observation type, numeric result
data = [
    ("Cc1cc2cc(C(=O)NCCCCP(=O)(O)O)cc(O)c(=O)c2c(O)c1O [Compound B-49]", "Absorption maximum 1 λmax", 278),
    ("COc1cc2cc(CO)cc(O)c(=O)c2c(O)c1O [Compound B-50]", "Absorption maximum 1 λmax", 305),
    ("O=C(O)CCCCCOc1cc2cc(C(=O)O)cc(O)c(=O)c2c(O)c1O [Compound B-19]", "Absorption maximum 1 λmax", 308),
    ("COC(=O)c1cc(O)c(=O)c2c(O)c(O)c(O[C@@H]3O[C@H](CO)[C@@H](O)[C@H](O)[C@H]3O)cc2c1 [Compound B-7]", "Absorption maximum 1 λmax", 287),
    ("COC(=O)c1cc(O)c(=O)c2c(O)c(O)ccc2c1 [Compound B-3]", "Absorption maximum 1 λmax", 277),
    ("COC(=O)c1cc(O)c(=O)c2c(O)c(O)c(O[C@@H]3O[C@H](CO)[C@H](O)[C@H](O)[C@H]3O)cc2c1 [Compound B-16]", "Absorption maximum 1 λmax", 288),
    ("Cc1cc2cc(C(=O)O)cc(O)c(=O)c2c(O)c1O [Compound B-31]", "Absorption maximum 1 λmax", 281),
    ("CCCCCCCCOC(=O)c1cc(O)c(=O)c2c(O)c(O)c(C)cc2c1 [Compound B-34]", "Absorption maximum 1 λmax", 282),
    ("COC(=O)c1cc(O)c(=O)c2c(OC)c(O)c(OCCO)cc2c1 [Compound B-45]", "Absorption maximum 1 λmax", 306),
    ("CCCCCCCC/C=C\\CCCCCCCCOc1cc2cc(C(=O)OC)cc(O)c(=O)c2c(O)c1O [Compound B-32]", "Absorption maximum 1 λmax", 310),
    ("COC(=O)c1cc(O)c(=O)c2c(O)c(O)cc(CCC(=O)O)c2c1 [Compound B-62]", "Absorption maximum 1 λmax", 281),
    ("COC(=O)c1cc(O)c(=O)c2c(O)c(O)c(OC)cc2c1 [Compound B-5]", "Absorption maximum 1 λmax", 308),
]
